# TARGET_UNDER_TEST: Protein arginine N-methyltransferase 1 (Homo sapiens, UniProt Q99873)
# Sequence (Q99873 whole entry): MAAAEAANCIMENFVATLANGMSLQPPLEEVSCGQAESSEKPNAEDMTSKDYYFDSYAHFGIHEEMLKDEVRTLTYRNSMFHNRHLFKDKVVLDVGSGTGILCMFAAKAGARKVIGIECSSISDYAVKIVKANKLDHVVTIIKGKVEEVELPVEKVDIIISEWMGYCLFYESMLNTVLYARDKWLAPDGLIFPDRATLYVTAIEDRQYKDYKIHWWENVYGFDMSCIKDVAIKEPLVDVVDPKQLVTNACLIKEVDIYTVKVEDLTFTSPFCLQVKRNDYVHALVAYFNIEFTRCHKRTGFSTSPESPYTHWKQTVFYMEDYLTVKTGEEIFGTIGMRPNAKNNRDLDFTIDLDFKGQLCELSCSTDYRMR
# PROTOCOL_DESCRIPTION: Inhibition of N-terminal GST-tagged human recombinant PRMT1 expressed in Escherichia coli by microbeta counting
REPORTED_ENDPOINT: IC50

Report IC50, nothing else, for this molecule: `CNCCNCc1cccc(-n2nc(C(F)(F)F)cc2C(=O)NCc2ccccc2OC)c1`
> 100 µM

* * *

log10 of IC50 by entry:
# TARGET_UNDER_TEST: Histone-arginine methyltransferase CARM1 (Mus musculus)
# Sequence (Q9WVG6 whole entry): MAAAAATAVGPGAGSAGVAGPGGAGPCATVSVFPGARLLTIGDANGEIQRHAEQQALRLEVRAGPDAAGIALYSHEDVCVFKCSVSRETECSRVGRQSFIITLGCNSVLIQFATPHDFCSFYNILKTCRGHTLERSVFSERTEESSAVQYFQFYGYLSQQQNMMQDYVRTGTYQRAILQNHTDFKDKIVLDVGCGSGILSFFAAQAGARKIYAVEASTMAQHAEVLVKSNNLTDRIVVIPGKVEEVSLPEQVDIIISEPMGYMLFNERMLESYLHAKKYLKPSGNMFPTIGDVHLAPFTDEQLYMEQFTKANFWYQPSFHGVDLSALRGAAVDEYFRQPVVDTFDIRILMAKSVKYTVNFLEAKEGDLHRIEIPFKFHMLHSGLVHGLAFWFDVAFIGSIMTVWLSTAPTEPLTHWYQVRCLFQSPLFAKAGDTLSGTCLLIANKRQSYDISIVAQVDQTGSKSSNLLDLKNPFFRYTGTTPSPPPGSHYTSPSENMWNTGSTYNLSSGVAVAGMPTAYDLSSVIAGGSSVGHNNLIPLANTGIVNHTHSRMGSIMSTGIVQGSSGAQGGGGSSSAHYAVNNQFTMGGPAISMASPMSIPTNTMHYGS
# PROTOCOL_DESCRIPTION: Inhibition of N-terminal His-tagged mouse recombinant CARM1 expressed in Sf9 cells by microbeta counting
For clarity, the numbers are log10 values of IC50 expressed in µM.

Worked cases, log10 of IC50 given:
COc1ccccc1CNC(=O)c1cc(C(F)(F)F)nn1-c1cccc(CNCCN)c1; 0.00
CNCCNCc1cccc(-n2nc(C(F)(F)F)cc2C(=O)NCc2nc3ccccc3[nH]2)c1; 0.63
CCNCCNCc1cccc(-n2nc(C(F)(F)F)cc2C(=O)NCc2ccccc2OC)c1; 0.89
CNCCNCc1cccc(-n2nc(C(F)(F)F)cc2C(=O)NCC2CCCCC2)c1; 0.56

In one line, give reported log10 of IC50 of the entry `CNCCNCc1cccc(-n2nc(C(F)(F)F)cc2C(=O)NCc2cccc3c2OCCO3)c1` .
-0.15

In one line, give reported log10 of IC50 of the entry CNCCNC(C)c1cccc(-n2nc(C(F)(F)F)cc2C(=O)NCc2ccccc2OC)c1 (stereo unspecified) .
1.32
